# assay-system: T1, human CD134 (full-length, on cells) (human, UniProt P43489 29-277)
# T1 construct: also called OX40; TNFRSF4
# T1 sequence: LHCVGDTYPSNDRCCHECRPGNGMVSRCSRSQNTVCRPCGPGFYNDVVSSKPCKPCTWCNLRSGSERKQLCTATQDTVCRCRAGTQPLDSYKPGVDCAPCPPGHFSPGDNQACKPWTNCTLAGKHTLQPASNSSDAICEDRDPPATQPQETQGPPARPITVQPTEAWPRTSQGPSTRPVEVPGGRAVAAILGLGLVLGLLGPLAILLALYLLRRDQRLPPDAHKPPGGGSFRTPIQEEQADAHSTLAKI
# test-method-notes: competition flow cytometry, stable CD134 293-F clone no. 5; competitor biotinylated mouse 12H3 at 700 ng/mL
# IC50 listing for each entry below

binder | IC50
humanized IgG4κ anti-human CD134 antibody clone 12H3 version 12H3_VL2VH1 (antibody, V domains shown, Stabilized human IgG4/κ; end of each range computed; also called 12H3_VL2H1) VH: QVQLVQSGAEVKKPGSSVKVSCKASGYTFKDYTMHWVRQAPGQGLEWMGGIYPNNGGSTYNQNFKDRVTITADKSTSTAYMELSSLRSEDTAVYYCARMGYHGPHLDFDVWGQGTTVTVSS VL: DIQMTQSPSSLSASVGDRVTITCKASQDVGAAVAWYQQKPGKAPKLLIYWASTRHTGVPDRFSGGGSGTDFTLTISSLQPEDFATYYCQQYINYPLTFGGGTKVEIKR | ~1.5 µg/mL
humanized IgG4κ anti-human CD134 antibody clone 12H3 version 12H3_VL2VH2 (antibody, V domains shown, Stabilized human IgG4/κ; end of each range computed; also called 12H3_VL2H2) VH: QVQLVQSGAEVKKPGSSVKVSCKASGYTFKDYTMHWVRQAPGQGLEWIGGIYPNNGGSTYNQNFKDRVTLTADKSTSTAYMELSSLRSEDTAVYYCARMGYHGPHLDFDVWGQGTTVTVSS VL: DIQMTQSPSSLSASVGDRVTITCKASQDVGAAVAWYQQKPGKAPKLLIYWASTRHTGVPDRFSGGGSGTDFTLTISSLQPEDFATYYCQQYINYPLTFGGGTKVEIKR | ~1.5 µg/mL
